B1: Zinc finger homeobox protein 4, residues 2562 to 2617; numbered along this chain, Q86UP3 (parent)
chain: RLRTTITPEQLEILYEKYLLDSNPTRKMLDHIAREVGLKKRVVQVWFQNTRARERK

# Variants of: B1
# experimentSummary: abundance fitness (aPCA) (normalised: wild type 0, dead -1); higher = more abundant; growth selection in yeast, the domain comes from the species named
# particulars: Homo sapiens
Give measured abundance fitness for each item. Keep answers brief.

Q: Entry N23L has what abundance fitness?
A: -0.238

Q: Entry K27V has what abundance fitness?
A: 0.099

Q: Entry R26V has what abundance fitness?
A: 0.223

Q: Entry M28H has what abundance fitness?
A: -0.305

Q: Entry L38G has what abundance fitness?
A: -0.915

Q: Entry V36Y has what abundance fitness?
A: -0.586

Q: Entry V36C has what abundance fitness?
A: -0.223

Q: Entry R26M has what abundance fitness?
A: -0.092

Q: Entry S22W has what abundance fitness?
A: -0.461

Q: Entry P24A has what abundance fitness?
A: -0.861

Q: Entry L38C has what abundance fitness?
A: -0.301

Q: Entry L20M has what abundance fitness?
A: -0.112

Q: Entry S22D has what abundance fitness?
A: 0.035

Q: Entry P24G has what abundance fitness?
A: -0.852

Q: Entry L19R has what abundance fitness?
A: -0.112

Q: Entry L29D has what abundance fitness?
A: -0.721

Q: Entry P24K has what abundance fitness?
A: -0.948

Q: Entry R41V has what abundance fitness?
A: 0.013

Q: Entry N23R has what abundance fitness?
A: 0.017

Q: Entry M28C has what abundance fitness?
A: -0.067

Q: Entry K27W has what abundance fitness?
A: -0.302

Q: Entry G37N has what abundance fitness?
A: 0.107

Q: Entry R34E has what abundance fitness?
A: 0.244

Q: Entry N23S has what abundance fitness?
A: -0.1

Q: Entry G37D has what abundance fitness?
A: -0.065

Q: Entry G37C has what abundance fitness?
A: -0.006

Q: Entry M28R has what abundance fitness?
A: -0.297

Q: Entry R41F has what abundance fitness?
A: -0.044

Q: Entry R41G has what abundance fitness?
A: 0.264

Q: Entry L19V has what abundance fitness?
A: -0.055

Q: Entry L19D has what abundance fitness?
A: -0.098

Q: Entry L19A has what abundance fitness?
A: -0.094

Q: Entry N23H has what abundance fitness?
A: -0.302

Q: Entry L38R has what abundance fitness?
A: -0.818

Q: Entry K27F has what abundance fitness?
A: -0.265

Q: Entry E35F has what abundance fitness?
A: -0.564

Q: Entry V36L has what abundance fitness?
A: -0.121

Q: Entry R41C has what abundance fitness?
A: 0.068

Q: Entry D30E has what abundance fitness?
A: -0.088

Q: Entry D21C has what abundance fitness?
A: -0.378

Q: Entry H31K has what abundance fitness?
A: 0.146

Q: Entry D21M has what abundance fitness?
A: -0.673

Q: Entry H31L has what abundance fitness?
A: -0.112

Q: Entry R26P has what abundance fitness?
A: -0.236

Q: Entry L29Q has what abundance fitness?
A: -0.124

Q: Entry G37M has what abundance fitness?
A: -0.465

Provenance of the data: the Human Domainome abundance scans (Beltran et al. 2025)
